conditions: 398.15 K; Liquid; Gas chromatography
So basically: vapor or sublimation pressure at 0.02 kPa or higher? That is satisfied. Lower than 0.02 kPa? That is not satisfied.

Here are 5 molecules together with their reported answers.
Cpd Smiles	Class Assignment
C[Si]1(C)O[Si](C)(C)O[Si](C)(C)O[Si](C)(C)O[Si](C)(C)O[Si](C)(C)O[Si](C)(C)O[Si](C)(C)O[Si](C)(C)O[Si](C)(C)O1	satisfied
C[Si](C)(C)O[Si](C)(C)O[Si](C)(C)O[Si](C)(C)O[Si](C)(C)O[Si](C)(C)O[Si](C)(C)C	satisfied
C[Si]1(C)O[Si](C)(C)O[Si](C)(C)O[Si](C)(C)O[Si](C)(C)O[Si](C)(C)O[Si](C)(C)O[Si](C)(C)O1	satisfied
C[Si](C)(C)O[Si](C)(C)O[Si](C)(C)O[Si](C)(C)O[Si](C)(C)O[Si](C)(C)O[Si](C)(C)O[Si](C)(C)O[Si](C)(C)O[Si](C)(C)O[Si](C)(C)C	not satisfied
C[Si](C)(C)O[Si](C)(C)O[Si](C)(C)O[Si](C)(C)O[Si](C)(C)O[Si](C)(C)C	satisfied

Query string: Does vapor or sublimation pressure meet or surpass 0.02 kPa for C[Si]1(C)O[Si](C)(C)O[Si](C)(C)O[Si](C)(C)O[Si](C)(C)O[Si](C)(C)O[Si](C)(C)O[Si](C)(C)O[Si](C)(C)O1 ?
Result string: satisfied

Query string: Does vapor or sublimation pressure meet or surpass 0.02 kPa for C[Si](C)(C)O[Si](C)(C)O[Si](C)(C)O[Si](C)(C)O[Si](C)(C)O[Si](C)(C)O[Si](C)(C)O[Si](C)(C)O[Si](C)(C)O[Si](C)(C)O[Si](C)(C)O[Si](C)(C)O[Si](C)(C)C ?
Result string: not satisfied

Query string: Does vapor or sublimation pressure meet or surpass 0.02 kPa for C[Si](C)(C)O[Si](C)(C)O[Si](C)(C)O[Si](C)(C)O[Si](C)(C)O[Si](C)(C)O[Si](C)(C)O[Si](C)(C)O[Si](C)(C)O[Si](C)(C)O[Si](C)(C)O[Si](C)(C)C ?
Result string: not satisfied

Query string: Does vapor or sublimation pressure meet or surpass 0.02 kPa for C[Si](C)(C)O[Si](C)(C)O[Si](C)(C)O[Si](C)(C)O[Si](C)(C)C ?
Result string: satisfied

* * *

settings: 378.15 K; Liquid; Gas chromatography
List of vapor or sublimation pressure values.
State just the number; it will be interpreted in kPa.

Record excerpt, results attached:
Compound	Result Units	Result Number
C[Si](C)(C)O[Si](C)(C)O[Si](C)(C)O[Si](C)(C)O[Si](C)(C)O[Si](C)(C)O[Si](C)(C)O[Si](C)(C)O[Si](C)(C)O[Si](C)(C)O[Si](C)(C)C [tetracosamethylundecasiloxane]	kPa	0.0005391
C[Si]1(C)O[Si](C)(C)O[Si](C)(C)O[Si](C)(C)O[Si](C)(C)O[Si](C)(C)O1 [dodecamethylcyclohexasiloxane]	kPa	0.5646
C[Si]1(C)O[Si](C)(C)O[Si](C)(C)O[Si](C)(C)O[Si](C)(C)O[Si](C)(C)O[Si](C)(C)O[Si](C)(C)O1 [hexadecamethylcyclooctasiloxane]	kPa	0.04791
C[Si](C)(C)O[Si](C)(C)O[Si](C)(C)O[Si](C)(C)O[Si](C)(C)O[Si](C)(C)O[Si](C)(C)C [hexadecamethylheptasiloxane]	kPa	0.07651

Query string: Look up vapor or sublimation pressure: C[Si](C)(C)O[Si](C)(C)O[Si](C)(C)O[Si](C)(C)O[Si](C)(C)O[Si](C)(C)O[Si](C)(C)O[Si](C)(C)O[Si](C)(C)C [eicosamethylnonasiloxane]
Result string: 0.006569

Query string: Look up vapor or sublimation pressure: C[Si](C)(C)O[Si](C)(C)O[Si](C)(C)O[Si](C)(C)O[Si](C)(C)O[Si](C)(C)O[Si](C)(C)O[Si](C)(C)O[Si](C)(C)O[Si](C)(C)C [docosamethyldecasiloxane]
Result string: 0.001861

* * *

conditions: 418.15 K; Liquid; Gas chromatography
Categories are assigned from the measured vapor or sublimation pressure using these intervals: bottom bin: < 0.09 kPa; middle bin: ≥ 0.09 kPa and < 0.6 kPa; top bin: ≥ 0.6 kPa

Cpd Smiles	Class Assignment
C[Si](C)(C)O[Si](C)(C)O[Si](C)(C)O[Si](C)(C)O[Si](C)(C)O[Si](C)(C)O[Si](C)(C)C	top bin
C[Si]1(C)O[Si](C)(C)O[Si](C)(C)O[Si](C)(C)O[Si](C)(C)O[Si](C)(C)O1	top bin
C[Si](C)(C)O[Si](C)(C)O[Si](C)(C)O[Si](C)(C)O[Si](C)(C)O[Si](C)(C)O[Si](C)(C)O[Si](C)(C)C	middle bin
C[Si](C)(C)O[Si](C)(C)O[Si](C)(C)O[Si](C)(C)O[Si](C)(C)O[Si](C)(C)O[Si](C)(C)O[Si](C)(C)O[Si](C)(C)O[Si](C)(C)C	bottom bin
C[Si](C)(C)O[Si](C)(C)O[Si](C)(C)O[Si](C)(C)O[Si](C)(C)O[Si](C)(C)C	top bin
C[Si](C)(C)O[Si](C)(C)O[Si](C)(C)O[Si](C)(C)O[Si](C)(C)O[Si](C)(C)O[Si](C)(C)O[Si](C)(C)O[Si](C)(C)O[Si](C)(C)O[Si](C)(C)O[Si](C)(C)C	bottom bin
C[Si](C)(C)O[Si](C)(C)O[Si](C)(C)O[Si](C)(C)O[Si](C)(C)O[Si](C)(C)O[Si](C)(C)O[Si](C)(C)O[Si](C)(C)O[Si](C)(C)O[Si](C)(C)C	bottom bin
C[Si](C)(C)O[Si](C)(C)O[Si](C)(C)O[Si](C)(C)O[Si](C)(C)O[Si](C)(C)O[Si](C)(C)O[Si](C)(C)O[Si](C)(C)O[Si](C)(C)O[Si](C)(C)O[Si](C)(C)O[Si](C)(C)C	bottom bin

Query string: Which band does C[Si]1(C)O[Si](C)(C)O[Si](C)(C)O[Si](C)(C)O[Si](C)(C)O[Si](C)(C)O[Si](C)(C)O[Si](C)(C)O[Si](C)(C)O1 fall in?
Result string: middle bin

Query string: Which band does C[Si]1(C)O[Si](C)(C)O[Si](C)(C)O[Si](C)(C)O[Si](C)(C)O[Si](C)(C)O[Si](C)(C)O1 fall in?
Result string: top bin

Query string: Which band does C[Si](C)(C)O[Si](C)(C)O[Si](C)(C)O[Si](C)(C)O[Si](C)(C)O[Si](C)(C)O[Si](C)(C)O[Si](C)(C)O[Si](C)(C)C fall in?
Result string: middle bin

* * *

conditions: 338.15 K; Liquid; Gas chromatography
Test Readout: vapor or sublimation pressure (kPa)
State just the number; it will be interpreted in kPa.

                                 cpd_smiles  result_number
0  C[Si]1(C)O[Si](C)(C)O[Si](C)(C)O[Si](C)(C)O[Si](C)(C)O[Si](C)(C)O[Si](C)(C)O[Si](C)(C)O[Si](C)(C)O1      0.0004734

Query string: Look up vapor or sublimation pressure: C[Si]1(C)O[Si](C)(C)O[Si](C)(C)O[Si](C)(C)O[Si](C)(C)O[Si](C)(C)O[Si](C)(C)O[Si](C)(C)O1
Result string: 0.002101

Query string: Look up vapor or sublimation pressure: C[Si](C)(C)O[Si](C)(C)O[Si](C)(C)O[Si](C)(C)O[Si](C)(C)O[Si](C)(C)C
Result string: 0.01845

Query string: Look up vapor or sublimation pressure: C[Si]1(C)O[Si](C)(C)O[Si](C)(C)O[Si](C)(C)O[Si](C)(C)O1
Result string: 0.3545

* * *

List of vapor or sublimation pressure values.
settings: 388.15 K; Liquid; Gas chromatography
State just the number; it will be interpreted in kPa.

Query string: Look up vapor or sublimation pressure: C[Si](C)(C)O[Si](C)(C)O[Si](C)(C)O[Si](C)(C)O[Si](C)(C)O[Si](C)(C)O[Si](C)(C)O[Si](C)(C)O[Si](C)(C)O[Si](C)(C)C [docosamethyldecasiloxane]
Result string: 0.00461

Query string: Look up vapor or sublimation pressure: C[Si]1(C)O[Si](C)(C)O[Si](C)(C)O[Si](C)(C)O[Si](C)(C)O[Si](C)(C)O[Si](C)(C)O[Si](C)(C)O[Si](C)(C)O1 [octadecamethylcyclononasiloxane]
Result string: 0.03069

Query string: Look up vapor or sublimation pressure: C[Si]1(C)O[Si](C)(C)O[Si](C)(C)O[Si](C)(C)O[Si](C)(C)O[Si](C)(C)O[Si](C)(C)O1 [tetradecamethylcycloheptasiloxane]
Result string: 0.2968

Query string: Look up vapor or sublimation pressure: C[Si](C)(C)O[Si](C)(C)O[Si](C)(C)O[Si](C)(C)O[Si](C)(C)O[Si](C)(C)C [tetradecamethylhexasiloxane]
Result string: 0.4533

Query string: Look up vapor or sublimation pressure: C[Si](C)(C)O[Si](C)(C)O[Si](C)(C)O[Si](C)(C)O[Si](C)(C)O[Si](C)(C)O[Si](C)(C)O[Si](C)(C)O[Si](C)(C)C [eicosamethylnonasiloxane]
Result string: 0.015

Values were extracted from the NIST ThermoML archive (doi:10.1021/je100835n).
